# ASSAY_TARGET: human Edg-1 receptor (Homo sapiens, UniProt P21453)
# Construct: FLAG (N); expressed in transfected cells; membrane preparation
# Sequence (P21453 whole entry): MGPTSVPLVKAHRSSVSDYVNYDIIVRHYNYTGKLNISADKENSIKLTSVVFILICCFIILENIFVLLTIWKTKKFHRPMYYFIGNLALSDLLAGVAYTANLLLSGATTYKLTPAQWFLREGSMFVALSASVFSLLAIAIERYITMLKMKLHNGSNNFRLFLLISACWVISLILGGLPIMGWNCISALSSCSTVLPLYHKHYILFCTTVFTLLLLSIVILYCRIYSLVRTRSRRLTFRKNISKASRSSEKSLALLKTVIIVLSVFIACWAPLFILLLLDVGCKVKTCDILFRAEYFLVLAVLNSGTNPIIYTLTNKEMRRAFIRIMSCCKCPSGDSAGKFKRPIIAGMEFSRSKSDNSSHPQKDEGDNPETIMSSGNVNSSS
# ASSAY_OVERVIEW: GTP-γ-S assay using human Edg-1 receptors (SPA, CHO Flp-In cell membrane preparation)
# Assay type: biochemical
# APPLIED_CONDITIONS: test compound at 10 μM; high control 10 μM S1P regarded as 100% activation; background-corrected; triplicate; read-out: % Activation (Edg-1 receptor activation in percent of the activation by 10 μM S1P)
activation at 10 µM: recorded values
MEASURED_METRIC: activation at 10 µM (%)

COMPOUND: CCCOc1nc(Oc2ccc(CC)cc2)nc2oc(-c3cccc(C)c3)nc12 [Example 122]
ASSAY_TARGET: human Edg-1 receptor (Homo sapiens, UniProt P21453)
UNIT_OF_MEASURE: %
OBSERVED_RESULT: 65
//
COMPOUND: CCCOc1nc(Oc2cncc(F)c2)nc2oc(-c3ccc(Cl)c(Cl)c3)nc12 [Example 160]
ASSAY_TARGET: human Edg-1 receptor (Homo sapiens, UniProt P21453)
UNIT_OF_MEASURE: %
OBSERVED_RESULT: 75
//
COMPOUND: CCCOc1nc(Oc2ccc(C#N)cc2OC)nc2oc(-c3cccc(C)c3)nc12 [Example 92]
ASSAY_TARGET: human Edg-1 receptor (Homo sapiens, UniProt P21453)
UNIT_OF_MEASURE: %
OBSERVED_RESULT: 51
//
COMPOUND: CCCOc1nc(Oc2ccccc2F)nc2oc(-c3cccc(OC)c3)nc12 [Example 40]
ASSAY_TARGET: human Edg-1 receptor (Homo sapiens, UniProt P21453)
UNIT_OF_MEASURE: %
OBSERVED_RESULT: 120
//
COMPOUND: CCCOc1nc(NC2CCC(F)(F)CC2)nc2oc(-c3cc(F)ccc3Cl)nc12 [Example 64]
ASSAY_TARGET: human Edg-1 receptor (Homo sapiens, UniProt P21453)
UNIT_OF_MEASURE: %
OBSERVED_RESULT: 109
//
COMPOUND: CCOc1nc(Oc2ccccc2F)nc2oc(-c3cc(C)c(OC)c(C)c3)nc12 [Example 46]
ASSAY_TARGET: human Edg-1 receptor (Homo sapiens, UniProt P21453)
UNIT_OF_MEASURE: %
OBSERVED_RESULT: 102
//
COMPOUND: Fc1ccc(Cl)c(-c2nc3c(OCC4CC4)nc(Oc4ccccc4F)nc3o2)c1 [Example 104]
ASSAY_TARGET: human Edg-1 receptor (Homo sapiens, UniProt P21453)
UNIT_OF_MEASURE: %
OBSERVED_RESULT: 117
//
COMPOUND: CCCOc1nc(Oc2ccccn2)nc2oc(-c3cccc(C)c3)nc12 [Example 76]
ASSAY_TARGET: human Edg-1 receptor (Homo sapiens, UniProt P21453)
UNIT_OF_MEASURE: %
OBSERVED_RESULT: 81
//
COMPOUND: CCCOc1nc(Oc2ccc(Cl)cc2OC)nc2oc(-c3cccc(F)c3)nc12 [Example 60]
ASSAY_TARGET: human Edg-1 receptor (Homo sapiens, UniProt P21453)
UNIT_OF_MEASURE: %
OBSERVED_RESULT: 80
//
COMPOUND: CCCOc1nc(Oc2ccc(OC(F)(F)F)c(Cl)c2)nc2oc(-c3cccc(C)c3)nc12 [Example 52]
ASSAY_TARGET: human Edg-1 receptor (Homo sapiens, UniProt P21453)
UNIT_OF_MEASURE: %
OBSERVED_RESULT: 51
//
COMPOUND: CCCOc1nc(Oc2ccc(C)cc2F)nc2oc(-c3cccc(C)c3)nc12 [Example 111]
ASSAY_TARGET: human Edg-1 receptor (Homo sapiens, UniProt P21453)
UNIT_OF_MEASURE: %
OBSERVED_RESULT: 88
//
COMPOUND: CCCOc1nc(Oc2ccccc2F)nc2oc(-c3cccc(O)c3)nc12 [Example 42]
ASSAY_TARGET: human Edg-1 receptor (Homo sapiens, UniProt P21453)
UNIT_OF_MEASURE: %
OBSERVED_RESULT: 130
//
COMPOUND: CCCOc1nc(Oc2cccc(S(N)(=O)=O)c2)nc2oc(-c3cccc(F)c3)nc12 [Example 23]
ASSAY_TARGET: human Edg-1 receptor (Homo sapiens, UniProt P21453)
UNIT_OF_MEASURE: %
OBSERVED_RESULT: 47
//
COMPOUND: CCCOc1nc(OC2CCC(C(F)(F)F)CC2)nc2oc(-c3cc(F)ccc3Cl)nc12 (centres unmarked) [Example 154]
ASSAY_TARGET: human Edg-1 receptor (Homo sapiens, UniProt P21453)
UNIT_OF_MEASURE: %
OBSERVED_RESULT: 87
//
COMPOUND: CCCOc1nc(Oc2cccc(C(C)(C)C)c2)nc2oc(-c3cccc(C)c3)nc12 [Example 125]
ASSAY_TARGET: human Edg-1 receptor (Homo sapiens, UniProt P21453)
UNIT_OF_MEASURE: %
OBSERVED_RESULT: 61
//
COMPOUND: CCCOc1nc(Oc2ccc(C)nn2)nc2oc(-c3cccc(F)c3)nc12 [Example 18]
ASSAY_TARGET: human Edg-1 receptor (Homo sapiens, UniProt P21453)
UNIT_OF_MEASURE: %
OBSERVED_RESULT: 42
//
COMPOUND: CCCOc1nc(Oc2c(C)cccc2Cl)nc2oc(-c3cccc(C)c3)nc12 [Example 91]
ASSAY_TARGET: human Edg-1 receptor (Homo sapiens, UniProt P21453)
UNIT_OF_MEASURE: %
OBSERVED_RESULT: 105
//
COMPOUND: CCCOc1nc(Oc2ccc(Cl)cc2OC)nc2oc(-c3cc(F)ccc3Cl)nc12 [Example 63]
ASSAY_TARGET: human Edg-1 receptor (Homo sapiens, UniProt P21453)
UNIT_OF_MEASURE: %
OBSERVED_RESULT: 80
//
COMPOUND: CCCOc1nc(Oc2cccc3c2OC(C)(C)C3)nc2oc(-c3cc(F)ccc3Cl)nc12 [Example 84]
ASSAY_TARGET: human Edg-1 receptor (Homo sapiens, UniProt P21453)
UNIT_OF_MEASURE: %
OBSERVED_RESULT: 60
//
COMPOUND: CCCOc1nc(Oc2ccccc2F)nc2oc(-c3cccc(C)c3)nc12 [Example 103]
ASSAY_TARGET: human Edg-1 receptor (Homo sapiens, UniProt P21453)
UNIT_OF_MEASURE: %
OBSERVED_RESULT: 109
//
COMPOUND: COc1c(C)cc(-c2nc3c(OC4COC4)nc(Oc4ccccc4F)nc3o2)cc1C [Example 8]
ASSAY_TARGET: human Edg-1 receptor (Homo sapiens, UniProt P21453)
UNIT_OF_MEASURE: %
OBSERVED_RESULT: 124
//
COMPOUND: CCCOc1nc(Oc2cccc(C)c2)nc2oc(-c3cccc(C)c3)nc12 [Example 98]
ASSAY_TARGET: human Edg-1 receptor (Homo sapiens, UniProt P21453)
UNIT_OF_MEASURE: %
OBSERVED_RESULT: 107
//
COMPOUND: CCCOc1nc(OC2CCCCC2)nc2oc(-c3cccc(C)c3)nc12 [Example 2]
ASSAY_TARGET: human Edg-1 receptor (Homo sapiens, UniProt P21453)
UNIT_OF_MEASURE: %
OBSERVED_RESULT: 90
//
COMPOUND: CCCOc1nc(Sc2nc(C)cs2)nc2oc(-c3cccc(C)c3)nc12 [Example 55]
ASSAY_TARGET: human Edg-1 receptor (Homo sapiens, UniProt P21453)
UNIT_OF_MEASURE: %
OBSERVED_RESULT: 81
//
COMPOUND: CCCOc1nc(Oc2cc(F)ccc2F)nc2oc(-c3cccc(C)c3)nc12 [Example 94]
ASSAY_TARGET: human Edg-1 receptor (Homo sapiens, UniProt P21453)
UNIT_OF_MEASURE: %
OBSERVED_RESULT: 122
//
COMPOUND: C=CCCCOc1nc(OCC2CC2)c2nc(-c3cccc(C)c3)oc2n1 [Example 16]
ASSAY_TARGET: human Edg-1 receptor (Homo sapiens, UniProt P21453)
UNIT_OF_MEASURE: %
OBSERVED_RESULT: 83
//
COMPOUND: CCCOc1nc(Oc2ccccc2)nc2oc(-c3cc(C)ccc3F)nc12 [Example 33]
ASSAY_TARGET: human Edg-1 receptor (Homo sapiens, UniProt P21453)
UNIT_OF_MEASURE: %
OBSERVED_RESULT: 124
//
COMPOUND: CCCOc1nc(Oc2ccccc2F)nc2oc(-c3cccc(F)c3)nc12 [Example 31]
ASSAY_TARGET: human Edg-1 receptor (Homo sapiens, UniProt P21453)
UNIT_OF_MEASURE: %
OBSERVED_RESULT: 80
//
COMPOUND: CCOc1nc(Oc2ccccc2F)nc2oc(-c3ccc[n+]([O-])c3)nc12 [Example 7]
ASSAY_TARGET: human Edg-1 receptor (Homo sapiens, UniProt P21453)
UNIT_OF_MEASURE: %
OBSERVED_RESULT: 116
//
COMPOUND: CCCOc1nc(Oc2cc(Cl)ccc2C)nc2oc(-c3cc(F)ccc3Cl)nc12 [Example 66]
ASSAY_TARGET: human Edg-1 receptor (Homo sapiens, UniProt P21453)
UNIT_OF_MEASURE: %
OBSERVED_RESULT: 106
//
COMPOUND: CCOc1nc(Oc2cc(C)nn2C)nc2oc(-c3cc(F)ccc3Cl)nc12 [Example 10]
ASSAY_TARGET: human Edg-1 receptor (Homo sapiens, UniProt P21453)
UNIT_OF_MEASURE: %
OBSERVED_RESULT: 107
//
COMPOUND: CCCOc1nc(OC2CCOCC2)nc2oc(-c3cc(F)ccc3Cl)nc12 [Example 117]
ASSAY_TARGET: human Edg-1 receptor (Homo sapiens, UniProt P21453)
UNIT_OF_MEASURE: %
OBSERVED_RESULT: 63
